Observed ΔTm for Serine/threonine-protein kinase VRK2 (Homo sapiens) (UniProt Q86Y07), reported per entry below.
Give bare numbers, in °C.

// solved cases for ΔTm follow
| structure.as.smiles | ΔTm, °C |
| --- | --- |
| O=C(O)c1cc(N(Cc2ccccc2O)Cc2cc(O)ccc2O)ccc1O | -0.6 |
| O=S(=O)(NCCNC/C=C/c1ccc(Br)cc1)c1cccc2cnccc12 | 0.1 |
| CC(=O)O/N=C1/C(=C2/C(=O)Nc3cc(Br)ccc32)Nc2ccccc21 | 0.6 |

Batch lookup, ΔTm per entry.
1. c1ccc(-c2n[nH]c3c2oc2ccccc23)cc1
2. COc1cc(O)c2c(c1)oc(=O)c1c3cc(O)c(O)cc3oc21
3. O=C1Cc2c([nH]c3ccc(Br)cc23)-c2ccccc2N1
4. Nc1ncnc2c1c(I)cn2[C@@H]1O[C@H](CO)[C@@H](O)[C@H]1O
5. Oc1ccc(-c2nc(-c3ccc(F)cc3)c(-c3ccncc3)[nH]2)cc1
6. CC(C)c1cc(/C=C(\C#N)C(=O)NCCCc2ccccc2)cc(C(C)C)c1O

Output:
1. 0.6
2. 1.2
3. 0.2
4. 0.1
5. 0.7
6. 0.7

* * *

Observed ΔTm for Cyclin-dependent kinase 16 (Homo sapiens), reported per entry below.
Give bare numbers, in °C.

// solved cases for ΔTm follow
| structure.as.smiles | ΔTm, °C |
| --- | --- |
| CC(C)c1nn(-c2c(Cl)cccc2Cl)c2nc(Cc3ccc(OCCO)cc3)[nH]c(=O)c12 | -0.6 |
| Cn1cc(/C=C2/C(=O)Nc3ccc(S(N)(=O)=O)cc32)c2ccccc21 | 1.9 |
| N#CCCc1ccc2c(c1)-c1[nH]c3ccc([N+](=O)[O-])cc3c1CC(=O)N2 | 8.7 |
| N#C/C(=C\c1ccc(O)c(O)c1)C(=O)Nc1ccccc1 | -0.5 |
| CCN1/C(=C/C(C)=O)Sc2ccc(OC)cc21 | -0.5 |

Batch lookup, ΔTm per entry.
1. CC(C)n1cnc2c(NCc3ccccc3O)nc(NCCCO)nc21
2. Ic1cccc(CSc2nnc(-c3ccncc3)o2)c1
3. Nc1nc(Nc2ccc(S(N)(=O)=O)cc2)nn1C(=S)Nc1c(F)cccc1F
4. C[C@@H](N)[C@H]1CC[C@H](C(=O)Nc2ccncc2)CC1
5. O=C1Nc2ccccc2/C1=C\c1ccc[nH]1
6. O=c1c(-c2ccc(O)cc2)coc2cc(O)cc(O)c12

Output:
1. -0.2
2. -0.8
3. 10
4. -0.7
5. 1.7
6. -0.6

* * *

Give measured ΔTm for each item. Keep answers brief.
# assayed.system: Serine/threonine-protein kinase PAK 6 (Homo sapiens)
Give bare numbers, in °C.

// solved cases for ΔTm follow
| compound | result.type | value.observed |
| --- | --- | --- |
| O=C(O)c1cc(NCc2cc(O)ccc2O)ccc1O | ΔTm | -0.1 |
| NC(=O)c1ccc(-c2nc(-c3ccc4c(c3)OCCO4)c(-c3ccccn3)[nH]2)cc1 | ΔTm | 0 |
| O=C1C(Cl)=C(N2C(=O)CCC2=O)C(=O)c2ccccc21 | ΔTm | -5 |

Batch lookup, ΔTm per entry.
1. COc1ccc2c(c[n+](C)c3c4cc5c(cc4ccc23)OCO5)c1OC [CHELERYTHRINE CHLORIDE]
2. CN[C@@H]1CC2O[C@@](C)([C@@H]1OC)n1c3ccccc3c3c4c(c5c6ccccc6n2c5c31)C(=O)NC4
3. CN(C)c1ncnc2nc[nH]c12 [DIMETHYLADENINE]
4. O=c1cc(N2CCOCC2)oc2c(-c3ccccc3)cccc12
5. NCCNc1ncc(C(N)=O)c(Nc2cccc(C(F)(F)F)c2)n1
6. COc1nccc(-c2c(-c3ccc(F)cc3)ncn2[C@H]2CC[C@H](O)CC2)n1
7. O=C(O)Cc1ccc(O)c([N+](=O)[O-])c1

Output:
-3.3
16.8
-0.3
-0.6
0.9
-0.3
-0.9
